Recorded values, source PubChem BioAssay AID2546.

Assay name: VP16 counterscreen qHTS for inhibitors of ROR gamma transcriptional activity;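 note: Gal4-VP16 expression switched on by copper sulfate through the metallothionein promoter; nearly all actives have a fitted effect of over 50% in size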
Experimental context: Drosophila S2 Gal4-VP16 UAS-luciferase, luminescence, 20 h; series mostly up to 53.6 µM
Method: NIH Molecular Libraries Probe Production Network [MLPCN] NIH Chemical Genomics Center [NCGC] Assay Provider: Dan Littman, New York University […] For screening, 600 cells in 4 uL/well were dispensed into white solid 1536-well plates (Grenier) using a solenoid-based dispenser. […] After addition of 1.5 uL Photinus luciferase detection reagent, the plates were incubated 10 min at ambient temperature and then read by a ViewLux (Perkin Elmer) to detect luminescence.
Screen size: about 310,000 compounds; about 11,000 (3.5%) were called active. Not shown: some 8% with an inconclusive outcome. Calls come from the whole dose curve; as a rule, active = well fitted inhibition curve with a large enough effect; inconclusive = small, poorly fitted or top-dose-only effect, or effect the other way; inactive = flat fitted curve, though single readings scatter. The sample holds actives, similar compounds and a random draw of the others, so the mix is not that of the screen.
The reply should name one outcome from 1 (yes) = active, 0 (no) = inactive

Example results:
- CC(=N\NC(=O)c1cc(Br)ccc1O)/C(=N/O)C(=O)Nc1ccccc1: 1 (yes)
- O=C(Nc1cccc(NC(=O)c2ccc(Br)cc2)c1)c1ccccc1: 0 (no)
- O=C(Nc1cccc(Cl)c1)Nc1nnc(-c2ccccc2)o1: 0 (no)
- CC1(C(=O)NCCc2c[nH]c3ccccc23)C=CC2(CCCCC2)N1C(=O)c1ccccc1 (centres undefined): 0 (no)
- COc1cc(C(=O)OCC(=O)NC(C)CCc2ccccc2)cc(OC)c1OC (centres undefined): 0 (no)
- CCOC(=O)CSc1nnc(NC(=O)C2CC(=O)N(c3ccc(F)cc3)C2)s1 (centres undefined): 0 (no)
- Cc1onc(-c2ccccc2)c1C(=O)N1CCN(S(=O)(=O)c2ccccc2C(F)(F)F)CC1: 0 (no)
- CCCCN1C(=S)NC[C@@H]1C(C)CC (some centres undefined): 1 (yes)

How was OC(c1nc2ccccc2[nH]1)C(O)C(O)C(O)c1nc2ccccc2[nH]1 (centres undefined) classified in this test? 0 (no)

How was O=C(Nc1ccccc1C(=O)NCC1CCCO1)c1ccccc1F (centres undefined) classified in this test? 0 (no)

How was "c1ccc2[nH]c(-c3nc4ccccc4[nH]3)nc2c1" classified in this test? 1 (yes)

How was "COc1cc2c(cc1OC)C(c1cccc([N+](=O)[O-])c1)=NCC2" classified in this test? 0 (no)

How was COc1ccc(N2CCC(CNC(=S)Nc3c(C)cccc3C)C2)cc1 (centres undefined) classified in this test? 1 (yes)

How was "COc1ccc(CNC(=O)CN(C(=O)c2csnn2)c2cnc3ccccc3c2)cc1" classified in this test? 0 (no)
